Experiment: Microsomal stability - Human; note: time not given here
Format: in vitro ADME
value-kind: Microsomal stability Rep1 (% remaining)

Example cases with answers are listed next.
>  <compound>
C[C@H](CO)N1C[C@H](C)[C@H](CN(C)C(=O)Nc2ccc(F)cc2)Oc2ncc(C#Cc3ccc(F)cc3)cc2C1=O [Compound 107]

>  <Microsomal stability Rep1 [% remaining]>
52.4

$$$$
>  <compound>
CCCCOc1cc(CC2CNC(=O)N2)ccc1OC (stereo not shown) [BRD-A07207424-001-04-1]

>  <Microsomal stability Rep1 [% remaining]>
81.5

$$$$

(1) C[C@H](CO)N1C[C@H](C)[C@H](CN(C)C(=O)Nc2ccc(F)cc2)Oc2ncc(-c3cc4ccccc4o3)cc2C1=O [Compound 106]
(2) Cc1ccc(Cl)cc1N(CC(=O)N(S)c1c(F)cccc1F)S(C)(=O)=O [BRD-K61250484-001-01-5]
Input line: Between 1 and 2 , which one shows the larger Microsomal stability Rep1 value? Pick one; state its label.
Output line: 1

* * *

Test: Solubility in PBS with 1% DMSO
Type: physicochemical
Conditions: aqueous buffer, kinetic from dmso stock, read-out: Solubility Rep3
value-kind: solubility (µM)

Example cases with answers are listed next.
>  <compound>
CC(=O)Nc1ccc(Cc2ccc(NC(C)=O)cc2)cc1

>  <measured>
36

$$$$
>  <compound>
CCCCOc1cc(CC2CNC(=O)N2)ccc1OC (centres unmarked)

>  <measured>
104

$$$$
>  <compound>
Cc1ccc(Cl)cc1N(CC(=O)N(S)c1c(F)cccc1F)S(C)(=O)=O

>  <measured>
26

$$$$

(P) C[C@H](CO)N1C[C@H](C)[C@H](CN(C)C(=O)Nc2ccc(F)cc2)Oc2ncc(C#Cc3ccc(F)cc3)cc2C1=O
(Q) Clc1ccccc1C(c1ccccc1)(c1ccccc1)n1ccnc1 [Clotrimazole, reference compound]
Input line: Between P and Q , which one shows the larger solubility value? Pick one; state its label.
Output line: P
(P: 41 µM, Q: 3.1 µM)

* * *

Test: Microsomal stability - Human; note: time not given here
Type: in vitro ADME
value-kind: Microsomal stability Rep2 (% remaining)

Example cases with answers are listed next.
>  <compound>
CC(=O)Nc1ccc(Cc2ccc(NC(C)=O)cc2)cc1

>  <unit-text>
% remaining

>  <Microsomal stability Rep2>
66.7

$$$$
>  <compound>
C[C@H](CO)N1C[C@H](C)[C@H](CN(C)C(=O)Nc2ccc(F)cc2)Oc2ncc(-c3cc4ccccc4o3)cc2C1=O

>  <unit-text>
% remaining

>  <Microsomal stability Rep2>
58.1

$$$$
>  <compound>
CCCCOc1cc(CC2CNC(=O)N2)ccc1OC (stereo not shown)

>  <unit-text>
% remaining

>  <Microsomal stability Rep2>
85.5

$$$$

(I) C[C@H]1CN([C@@H](C)CO)C(=O)CCCn2cc(nn2)CO[C@H]1CN(C)C(=O)C1CC1
(II) C[C@H](CO)N1C[C@H](C)[C@H](CN(C)C(=O)Nc2ccc(F)cc2)Oc2ncc(C#Cc3ccc(F)cc3)cc2C1=O
(III) Cc1ccc(Cl)cc1N(CC(=O)N(S)c1c(F)cccc1F)S(C)(=O)=O
(IV) CCn1cc(NC(=S)Nc2cc(Cl)ccc2OC)c(C(N)=O)n1
Input line: Order the records, beginning with the lowest Microsomal stability Rep2 and ending with the highest. Field: ranking. Enter the labels in the order requested.
Output line: III, IV, II, I
